The origin of these recorded values is ChEMBL document CHEMBL4007384.

# experiment: AUC in dog at 1 mg/kg, po
# Format: ADME, organism-based, Canis lupus familiaris
# runParameters: in vivo
measurementName: AUC (ng·h/mL)
Express your answer in ng·h/mL, writing the number without its unit.

**Q:** Return AUC for the following molecule: COC(=O)N[C@@H]1CC(C)(C)c2ccc(Nc3nc(NCC(F)F)c4occc4n3)cc2NC1=O
**A:** 2340

====

# targetUnderTest: BDNF/NT-3 growth factors receptor (Homo sapiens)
# Sequence (Q16620 whole entry): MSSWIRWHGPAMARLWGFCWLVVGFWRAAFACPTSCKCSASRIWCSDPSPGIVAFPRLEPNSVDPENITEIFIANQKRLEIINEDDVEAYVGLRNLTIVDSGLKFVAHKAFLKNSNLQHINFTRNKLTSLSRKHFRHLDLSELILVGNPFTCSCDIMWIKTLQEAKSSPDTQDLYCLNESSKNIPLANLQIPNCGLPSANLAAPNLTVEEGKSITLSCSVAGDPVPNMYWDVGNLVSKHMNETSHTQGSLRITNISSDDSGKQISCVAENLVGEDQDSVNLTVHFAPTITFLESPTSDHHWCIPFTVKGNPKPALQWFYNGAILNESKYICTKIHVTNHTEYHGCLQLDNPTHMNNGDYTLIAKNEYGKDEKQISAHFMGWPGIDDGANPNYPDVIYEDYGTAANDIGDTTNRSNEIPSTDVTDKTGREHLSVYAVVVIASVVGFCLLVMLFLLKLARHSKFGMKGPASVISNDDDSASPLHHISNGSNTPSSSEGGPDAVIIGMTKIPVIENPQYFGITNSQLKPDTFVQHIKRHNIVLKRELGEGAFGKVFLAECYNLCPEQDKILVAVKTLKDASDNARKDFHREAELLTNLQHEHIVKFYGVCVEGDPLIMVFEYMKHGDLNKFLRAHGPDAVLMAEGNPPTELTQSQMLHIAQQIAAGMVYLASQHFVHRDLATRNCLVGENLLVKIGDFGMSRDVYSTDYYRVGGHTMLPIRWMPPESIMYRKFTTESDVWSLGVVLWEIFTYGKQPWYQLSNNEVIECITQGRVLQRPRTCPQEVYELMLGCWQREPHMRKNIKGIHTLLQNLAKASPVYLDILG
measurementName: IC50

**Q:** Return IC50 for the following molecule: Cc1n[nH]c2cc(Nc3nc(NC4CC4)c4occc4n3)ccc12
**A:** > 10 µM

====

The following molecules are listed with their measured pIC50 values.
# targetUnderTest: Mitogen-activated protein kinase kinase kinase kinase 2 (Homo sapiens, UniProt Q12851)
# Sequence (Q12851 whole entry): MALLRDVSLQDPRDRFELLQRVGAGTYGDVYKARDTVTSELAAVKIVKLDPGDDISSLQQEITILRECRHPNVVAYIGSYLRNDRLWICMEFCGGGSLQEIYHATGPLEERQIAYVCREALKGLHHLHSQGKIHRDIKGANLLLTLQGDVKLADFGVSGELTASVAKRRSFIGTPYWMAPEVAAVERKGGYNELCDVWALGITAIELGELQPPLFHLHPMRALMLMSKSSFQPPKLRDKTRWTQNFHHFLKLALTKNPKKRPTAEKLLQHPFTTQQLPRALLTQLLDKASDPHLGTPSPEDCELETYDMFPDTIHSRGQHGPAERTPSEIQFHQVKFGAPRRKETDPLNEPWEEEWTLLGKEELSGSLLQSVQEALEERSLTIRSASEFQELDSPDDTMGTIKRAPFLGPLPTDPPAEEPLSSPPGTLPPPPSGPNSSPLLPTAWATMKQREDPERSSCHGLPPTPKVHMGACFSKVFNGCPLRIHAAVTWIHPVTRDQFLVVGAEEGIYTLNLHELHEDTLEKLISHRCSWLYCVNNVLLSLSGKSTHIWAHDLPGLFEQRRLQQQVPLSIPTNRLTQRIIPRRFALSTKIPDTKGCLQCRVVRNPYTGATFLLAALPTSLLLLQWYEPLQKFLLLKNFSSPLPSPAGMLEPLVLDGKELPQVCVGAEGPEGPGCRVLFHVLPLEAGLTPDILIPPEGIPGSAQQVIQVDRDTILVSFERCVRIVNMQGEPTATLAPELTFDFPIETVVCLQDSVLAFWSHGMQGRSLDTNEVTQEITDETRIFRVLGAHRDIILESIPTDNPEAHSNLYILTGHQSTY
# experiment: Inhibition of MAP4K2 (unknown origin) after 60 mins by TR-FRET assay
pIC50 here is simply -log10 of the concentration when that concentration is written in mol/L.

Below, 2 molecules whose answers are already recorded.
**Q:** Return pIC50 for the following molecule: FC(F)(F)CNc1nc(Nc2ccc(N3CCOCC3)c(Cl)c2)nc2ccoc12
**A:** 5.80

**Q:** Return pIC50 for the following molecule: Cc1n[nH]c2cc(Nc3nc(NC4CC4)c4occc4n3)ccc12
**A:** 5.20

Consider the additional molecule presented here.
**Q:** Return pIC50 for the following molecule: CC1(C)OCC(=O)Nc2cc(Nc3nc(NCC(F)(F)F)c4occc4n3)ccc21
**A:** 5.53
